biological target: DAO from swine kidney (Sus scrofa, UniProt Q9TRC7); construct: DAO from swine kidney, as obtained and purified by the Sigma; purchased Sigma (St. Louis); host or cells: swine kidney; experiment: Compound as the substrate of DAO (production of H2O2); type: biochemical; design: key: the compound is the substrate; ns: the compound is not the substrate; conditions: 37° C., air
Sequence (Q9TRC7 25-755): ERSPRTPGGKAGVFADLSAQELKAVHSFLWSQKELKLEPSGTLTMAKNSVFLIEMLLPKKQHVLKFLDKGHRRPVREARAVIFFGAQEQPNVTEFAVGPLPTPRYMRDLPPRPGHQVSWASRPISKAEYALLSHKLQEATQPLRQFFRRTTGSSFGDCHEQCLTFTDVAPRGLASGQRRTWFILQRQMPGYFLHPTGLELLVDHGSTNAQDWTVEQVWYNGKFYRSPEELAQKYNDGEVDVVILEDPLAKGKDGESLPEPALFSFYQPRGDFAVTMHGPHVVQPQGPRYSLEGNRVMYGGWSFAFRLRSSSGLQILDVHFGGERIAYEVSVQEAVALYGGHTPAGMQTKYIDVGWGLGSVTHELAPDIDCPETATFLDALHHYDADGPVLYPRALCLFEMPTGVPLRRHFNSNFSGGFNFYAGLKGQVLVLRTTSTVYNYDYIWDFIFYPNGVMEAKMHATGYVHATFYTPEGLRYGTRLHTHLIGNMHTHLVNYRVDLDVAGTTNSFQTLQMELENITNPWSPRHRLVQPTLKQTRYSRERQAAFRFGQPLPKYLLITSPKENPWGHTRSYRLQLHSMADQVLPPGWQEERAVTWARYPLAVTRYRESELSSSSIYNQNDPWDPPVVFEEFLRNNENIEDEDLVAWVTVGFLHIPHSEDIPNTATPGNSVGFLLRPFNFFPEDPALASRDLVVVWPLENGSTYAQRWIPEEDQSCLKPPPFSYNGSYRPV
property label: DAO: compound as the substrate

{"columns": ["compound", "property label", "value"],
 "data": [
  ["Cl.NCc1c(OCCO)cccc1OCCO [Example 13]", "DAO: compound as the substrate", "s"],
  ["CCc1cccc(CC)c1CN.Cl [Example 11, 2,6-diethylbenzylamine hydrochloride]", "DAO: compound as the substrate", "s"]
]}

* * *

target: Pure BAO obtained from swine plasma; assay: Inhibition of benzylaminoxidase (BAO), isotopic procedure with 14C-benzylamine; settings: 30 minutes pre-incubation; 14C-benzylamine 1,7 mM (saturating); mean ± s.e.
property label: pIC50
Answers are plain numbers, as −log10 of the molar value.

These recorded examples may help you get a feel for the data.
{"columns": ["molecule", "pIC50"],
 "data": [
  ["CCOc1cccc(OCC)c1CN.Cl [Example 1, 2,6-diethoxybenzylamine hydrochloride]", 6.74],
  ["COCOc1cccc(OCOC)c1CN.Cl [Example 9, hydrochloride]", 6.02],
  ["CCCCOc1cccc(OCCCC)c1CN.Cl [Example 4, hydrochloride]", 6.85]
]}

Attention now turns to another entry.
// sample Cl.NCc1ccccc1O [Example 5, 2-hydroxybenzylamine hydrochloride] , its pIC50 was 3.00

* * *

target: DAO from swine kidney (Sus scrofa); construct: DAO from swine kidney, as obtained and purified by the Sigma; purchased Sigma (St. Louis); host or cells: swine kidney; test: Compound as the substrate of DAO (production of H2O2); assay type: biochemical; parameters: key: the compound is the substrate; ns: the compound is not the substrate; settings: 37° C., air
property label: DAO: compound as the substrate

{"columns": ["molecule", "property label", "value"],
 "data": [
  ["COCOc1cccc(OCOC)c1CN.Cl", "DAO: compound as the substrate", "s"],
  ["COc1cccc(OC)c1CN.Cl [Example 7, 2,6-di-methoxybenzylamine hydrochloride]", "DAO: compound as the substrate", "s"],
  ["CC(C)Oc1cccc(OC(C)C)c1CN.Cl", "DAO: compound as the substrate", "s weak"],
  ["Cl.NCc1ccccc1O [Example 5, 2-hydroxybenzylamine hydrochloride]", "DAO: compound as the substrate", "s"],
  ["CCOc1cccc(OCC)c1CN.Cl [Example 1, 2,6-diethoxybenzylamine hydrochloride]", "DAO: compound as the substrate", "s"],
  ["CCCCOc1cccc(OCCCC)c1CN.Cl", "DAO: compound as the substrate", "s"],
  ["Cl.NCc1ccccc1CO [Example 6, 2-hydroxymethylbenzylamine hydrochloride]", "DAO: compound as the substrate", "s"],
  ["COCc1cccc(COC)c1CN.Cl", "DAO: compound as the substrate", "s"]
]}

Reported DAO: compound as the substrate ( CCCc1cccc(CCC)c1CN.Cl [Example 12, 2,6-di-n-propylbenzylamine hydrochloride] ) = s weak

* * *

Sequence of the target: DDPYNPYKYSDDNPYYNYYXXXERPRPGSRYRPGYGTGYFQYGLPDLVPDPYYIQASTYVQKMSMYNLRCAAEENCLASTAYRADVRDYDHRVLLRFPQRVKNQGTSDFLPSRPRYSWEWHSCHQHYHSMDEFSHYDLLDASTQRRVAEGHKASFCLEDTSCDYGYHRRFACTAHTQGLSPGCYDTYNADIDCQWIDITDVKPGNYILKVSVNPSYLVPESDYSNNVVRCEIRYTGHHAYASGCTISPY
property label: IC50 (µM)
Answers are plain numbers, in µM.

response.value for CCCc1cccc(CCC)c1CN.Cl [Example 12, 2,6-di-n-propylbenzylamine hydrochloride] (field: IC50) = 1000
